# system.name: hCB1 (Homo sapiens, UniProt P21554)
# Sequence (P21554 whole entry): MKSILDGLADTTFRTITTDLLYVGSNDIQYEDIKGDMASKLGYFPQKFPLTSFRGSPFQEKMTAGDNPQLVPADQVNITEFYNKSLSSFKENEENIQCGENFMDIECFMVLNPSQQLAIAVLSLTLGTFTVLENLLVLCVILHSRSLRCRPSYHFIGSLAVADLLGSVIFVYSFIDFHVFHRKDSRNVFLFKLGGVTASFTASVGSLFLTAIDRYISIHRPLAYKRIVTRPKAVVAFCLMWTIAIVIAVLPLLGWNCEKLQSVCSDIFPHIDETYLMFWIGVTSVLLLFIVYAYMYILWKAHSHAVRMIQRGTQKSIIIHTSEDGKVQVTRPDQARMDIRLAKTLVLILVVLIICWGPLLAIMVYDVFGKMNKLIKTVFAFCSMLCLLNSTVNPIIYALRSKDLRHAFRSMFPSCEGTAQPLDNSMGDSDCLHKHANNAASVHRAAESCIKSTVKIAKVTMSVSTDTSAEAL
# protocol: In vitro binding assay using hCB1-CHO membranes, [3H]-CP-55,940 displacement (Protocol II)
# Parameters: expressed in transfected cells; host or cells: CHO (hCB1-CHO, generated in-house)
Friendly reminder: % Displacement Protocol II below 40% is T, at or above is F.

hey, is % Displacement Protocol II for `O=C(NNc1ccc(Cl)cc1)c1nn(-c2ccc(Cl)cc2)c2c1C1CC3CC(C1)CC2C3` lower than 40% or not?
T

hey, is % Displacement Protocol II for O=C(NN1CCOCC1)c1nn(-c2ccc(F)cc2F)c2c1C1CCC2C1 (stereo not drawn) lower than 40% or not?
T

hey, is % Displacement Protocol II for CC1(C)C2CC[C@@](C)(C2)C1NC(=O)c1nn(-c2ccc(Cl)cc2)c2c1C1CC3CC(C1)CC2C3 (stereo partly drawn) lower than 40% or not?
T

hey, is % Displacement Protocol II for `O=C(NN1CCCCC1)c1nn(-c2ccccc2Cl)c2c1C1CC3CC(C1)CC2C3` lower than 40% or not?
T

hey, is % Displacement Protocol II for `O=C(c1n[nH]c2c1C1CC3CC(CC2C3)C1)N1CCCCC1` lower than 40% or not?
T

hey, is % Displacement Protocol II for Cn1nc(C(=O)NN2CCCCC2)c2c1C1CC3CC(CC2C3)C1 [Example 189b] lower than 40% or not?
T

====

List of % Displacement Protocol II values.
# system.name: hCB1 (Homo sapiens)
# protocol: In vitro binding assay using hCB1-CHO membranes, [3H]-CP-55,940 displacement (Protocol II)
# Design: expressed in transfected cells; host or cells: CHO (hCB1-CHO, generated in-house)
Express your answer as a number followed by its unit.

// below: answered compounds
>>> recorded_measurement("CN(NC(=O)c1nn(-c2ccc(Cl)cc2Cl)c2c1C1CCC2c2ccccc21)C1CCCCC1 (stereo not drawn)")
"62.9%"
>>> recorded_measurement("O=C(NC12CC3CC(CC(C3)C1)C2)c1nn(-c2ccc(Cl)cc2)c2c1C1CC3CC(C1)CC2C3")
"8.36%"
>>> recorded_measurement("O=C(NCc1ccccc1)c1nn(-c2ccccc2)c2c1C1CC3CC(C1)CC2C3")
"29.49%"
>>> recorded_measurement("C[C@H](NC(=O)c1nn(-c2ccc(Cl)cc2Cl)c2c1C1CCC2C1)c1ccccc1 (stereo partly drawn)")
"74.52%"
>>> recorded_measurement("C[C@H](NC(=O)c1nn(-c2ccc(F)cc2F)c2c1C1CC3CC(C1)CC2C3)c1ccccc1")
"60.51%"

// moving on: another record for % Displacement Protocol II
COC(=O)[C@@H](NC(=O)c1nn(-c2ccc(F)cc2F)c2c1C1CCC2C1)c1ccccc1 (stereo partly drawn) yielded % Displacement Protocol II of 82.54%
